experiment: yeast display, Sf9 membrane polyspecificity reagent, FACS + sequencing; frameworks hold sequencing errors
reportedProperty: polyreactivity (PSR sort gate)

QVQLVESGGGLVQAGGSLRLSCAASGSIFDLYAMGWYRQAPGKERELVAAINWTGGSTYYADSVKGRFTISRDNAKNTVYLQMNSLKPEDTAVYYCAASYYYGTEHYDYWGQGTQVTVSS    low polyreactivity
QVQLVESGGCLVQAGGSLRLSCAASGSIIWYYAMGWYRQAPGKERELVAAISTGGSTYYADSVKGRFTISRDNAKNTVYLQMNSLKPEDTAVYYCAAGAFGQILNYWGQGTQVTVSS    high polyreactivity
QVQLVESGGGLVQAGGSLRLSCAASGSTIFPYAMGWYRQAPGKERELVAAITSGGNTNYADSVKGRFTISRDNAKNTVYLQMNSLKPEDTAVYYCAADYFWHYRKYDYWGQGTQVTVSS    low polyreactivity
QVQLVESCGGLVQAGSSLRLSCAASVITFYGYAMGWYRQAPGKERELVADITRGGSTNYADSVKGRFTISRDNAKNTVFLQMNSLKPEDSAVYYCAKSTRRFSWYYSTVGYNYWAQGTQVTVSS    high polyreactivity
QVQLVESGGGLVQAGGSLRLSCAASGFTFYSNAMGWYRQAPGKEREMVATITASGGSTYYADSVKGRFTNSRDNAKYTVYVQMYSLKPEDTAVYYCAKDLYWYYRRRGQYVYWGQGTQVTVSS    high polyreactivity

====

experiment: yeast display, Sf9 membrane polyspecificity reagent, FACS + sequencing; frameworks hold sequencing errors
reportedProperty: polyreactivity (PSR sort gate)

QVQLVESGGGLVQAGGSLRLSCASSGRIFNRYAMGWYRQAPGKERELVAAISSRGGSTYYADSVKGRFTISRDNAKNTVYLPMNSLKPEDTAVYYCAASAQKASYDWRYDYWGQGTQVTVSS    high polyreactivity
QVQLVDSGGGLDQAGGSLRLSCAASGFTFGDNAMGCYRQAPGKERELVARITGDGSTYYADSVKGRFTISRDNAKNTVYLQMNSLKPEDTAFFYCAADYSPRYTQIEYGYWGQGTQVTVSS    low polyreactivity
QVQLVESGGGLVQAGGSLRLSCAASGSTFYPYAMGRYRQAPGKERELVAAISSGGSTSYADSVKGRFTISRDNAKNTVYLQLNSLKPEDTAVYYCNASSPGAVPVYDYDYWGQGTQVTVSS    low polyreactivity
QVQLVESGGGLVQAGGSLRLSCAASGSTFYANAMGWYRQAPGKERELVAEISFSGASTFYADSVKGRFTISRDNAKNTVYLQMNSLKPEDTAVYYCATANPSVVGFDYWGQGTQVTVSS    low polyreactivity
QVQLVESGGGLVQAGGSLRLSCAASGFTFYLYAMGWYRQAPGKERELVAASTWSGGRTYYADSVKGRFTISRDNAKNTVYLQMNSLKPEDTADYYCAVDGFRGRSHGANDFWGQGTQVTVSS    high polyreactivity

====

test: yeast display, Sf9 membrane polyspecificity reagent, FACS + sequencing; frameworks hold sequencing errors
reportedProperty: polyreactivity (PSR sort gate)

QLQLVESGGGLVQAGGSLRLSCAASGSISAVNTMGWYRQAPRKERELVATISYSTASTYYADSVKGRFTISRDNAKITVYLQINSRKPEDTAFYYCNKDGRRYAYNSEYDHWGQGTQVTVSS    low polyreactivity
QVQLVESGGGLVQAGGSLRLSCAASGSTFYRYAMGWYRQAPGKERELVAAISSSGGRTYYADSVKGRFTISRDNAKKTVYLQMNSLKPEDTAVYYCAAKNAAYARYYYWGQGTQVTVSS    high polyreactivity
QVQLVESGGGLVQAGGSLRLSCAASGLTFRVYDMGWYRQAPGKERELVAAITGGGRTYYADSVKGRFTISRDNAKNTVYLQMNSLKPEDTAVYYCAARTRVTKREYDYWGQGTQVTVSS    high polyreactivity
QVQLVESGGGLVQAGGSLRLSCAASGRIFGAYAMGWSRQAPGKERELVAAITSRGGNTYYADSVKGRFTISRDNAKNTVYLQMNSVKPEDTAVYYCAARHDKRRQYYVGQSAFDYWGQGTQVTVSS    low polyreactivity
QVQLVESGGGLVQAGGSLRLSCAASGFIFNFYAMGLYRQAPGKERELVAAISRSGGGTYYADSVKGRFTISRDNAKYTVYFQMNSLKPEDTAVYSCNVDKYRIVGFHSPYDYWGQGTQVTVSS    high polyreactivity

====

assay: yeast display, Sf9 membrane polyspecificity reagent, FACS + sequencing; frameworks hold sequencing errors
reportedProperty: polyreactivity (PSR sort gate)

QVQLVDSVGGLVQAGGSLPLICAASGSTFGNYAKGWYRQAPGKERELVAAINSGDSTSYADSVKGRFTISRDNANNTVYLHMNSLKPEDTAVYYCSVRPRRNQYGYWGQGTQLTVSS    low polyreactivity
QVQLVESGGGLVQAGGSLRLSCAASGITFYLYALGWYRQAPGKERELVAAISSSGGRTYYADSVKGRFTISRDNAKNTVYLQMNSLKPEDTAVYYCAARRYGVPPTYDYWGQGTQVTVSS    high polyreactivity
QVQLVESGGGLVQAGGSLRLSCAASGRIFDYYAMGWYRQAPGKERELVAAISSSVGNTYYADSVKGRFTISRDNAKNTVYLQMNSLKPEDTAVYYFADYSYVRSSYEVEDDYWGQGTQVTVSS    low polyreactivity
QVQLVESGGGLVQAGGSLRLSCAASGITFDYYAMGWYRPAPGKERELVAAISGSGARTYYADSVKGRFTISRDTAKNTFYLQMNSLKPEDTAVYYCAAEYYTVPPGGIEDYWGQGTQVTVSS    high polyreactivity
QVQLVESGGGLVQAGGSLRLSCAASGRIFPYYAMGWYRQAPGKERELVAAISQSGGRTYYADSVKGRFTISRDNAKNTVYLQMNSLKPEDTAVYYCIAYTYSSGYDYWGQGTQVTVSS    high polyreactivity
QVQLVESGGGLVQAGGSLRLSCAASGRIFGYNAMGWYRQATGNERELVAAITNGGSTNYADSVKGRFTISRDNAKNTVYLQMNSLKPEDTAVYYCAVKWYPPGHDYWGQGTQVTVSS    low polyreactivity
QGQLVESGGGLVQAGGSLRISCGASGYIFGDKAMGWYRPEPGKARELVAAITQTGANTYYADSVMGRFTISRDNAKNTVYLQMNSLKPEDSAVYYCNKVSVVYSRSKGFYYTYLKYEFWGQGTQVTVSS    low polyreactivity
QVQLVESGGGLVQAGGSLRLSCAASGRIFSIYGMGWSRQAPGKERELVAVISGSVGITYYADSVKVRFTISRDNAKNTVYLQMISLKPEDTAVYYCNAKVRRRKYDYWGQGTQVTVSS    high polyreactivity
QVQLVESGGGLVQAGGSLRLSCAASGFIFYSYAMGWYRQAPGKERELVAAITEDGDSTYYADSVKGRFTISRDNAKNTVYLQMNSLKPEDTAVYYCNTDLTFNGTSGDYDYWGQGTQVTVSS    low polyreactivity
QVQLLESGGGLVQAGRSLRLSCAASGRTFRIYAMGWYRQAPGKEREEVAAITRSSGSTFYADSVKGRFTISRDNAKNTVYLQMNSLKPEDTAVYYCAAEYFEWWVTYDYWGQGTQVTVSS    high polyreactivity
QVQLVESGGGLVPAGGSLRLSCAASGGTFYTYVMGWSSQAPGKERELGAAIAGSGNTYYADSVKGRFTISRDKAKKTVYLQMNSLKPEDTAVYYCAKVLRMYPSGSWYGYWGQGTQVTVSS    high polyreactivity

====

test: yeast display, Sf9 membrane polyspecificity reagent, FACS + sequencing; frameworks hold sequencing errors
reportedProperty: polyreactivity (PSR sort gate)

QDQLVESGGGLVQAGGSLRLSCAATGSIFGFNTMGWYRQAPGKERELVPTINWRGGRTYYADSVKGRFTISRDNAKNTVYLLMNSLKPEDTAVYYFNTQGLAGQYQEHGYWGQGTQVTVSS    high polyreactivity
QVQLVESGGGIVQAGGSLRLSCAASGSIFKRYAMGWYRQAPGKERELVAAISWSGGNTYYADSVKGRFTISRDNAKYTVYLQMNILKPEDTAVYYCNAGYSYFGPGRGRFRYYYWGQGTQVTVSS    high polyreactivity

====

assay: yeast display, Sf9 membrane polyspecificity reagent, FACS + sequencing; frameworks hold sequencing errors
reportedProperty: polyreactivity (PSR sort gate)

QVQLVESGGGLVQAGGSLRLSCAASGRTFRYYTMGWYRQAPGKERELVAAISWSSGSTYYADSVKGRFTISRDNAKNTVYLQMNSLKPEDTAVYYCAASRVRREYVGQDVGFVGYDSWGQGTQVTVSS    high polyreactivity
QVQIVESGGGLVQAGGSLRLSCAASGSTFYSYAMGWYRPAPGKERELVAGISYIGGRTYYADSVKGRFTISRDNAKNTVYLQMNSLKAEDTAVYDCAADQYGTTYGYWGHGTQVTVSS    high polyreactivity

====

experiment: yeast display, Sf9 membrane polyspecificity reagent, FACS + sequencing; frameworks hold sequencing errors
reportedProperty: polyreactivity (PSR sort gate)

QVQLVESGGGLVQAGGSLRLSCAASGSTLYGYAMGWYRQAPGKERELVAAISSSGTRTYYADSVKGRFTISRDNAKNSVYLQMNSLKPEDTAVYYCNAYYYIPFEGRGYSKMDYWGQGTQVTVSS    high polyreactivity
LVQLVESGGGIVQAGGSLRLTCAASGRTFWGYSMGWYRQSPGKERELVAAISWTGGRTYYADSVKGRFTISRDYAKNSVNLQMNSLKPEDTAVYDCARPYTTYDGRYHYWGQGTQVTVSS    high polyreactivity
